Numbers sourced from ChEMBL document CHEMBL4689842.

- Test system: HEK-293T
- assay_notes: Multiplex assay against HEK293T
- Type: toxicity, cell-based
- setup_conditions: human, 12 h, 1 µM, compound concentration 1 uM, replicate 2
A collection of compounds and their measured Population Fragmented Nuclei (%)
A number alone suffices; assume %.

Worked examples follow.
[[record]]
structure_smiles_string = "O=C(Nc1ccc(-n2nc(-c3cccnc3)cc2C(F)(F)F)cn1)c1ccc(-c2ccccc2)c(F)c1"
assayed_system = "HEK-293T"
measurement_unit = "%"
assay_value = 11

[[record]]
structure_smiles_string = "O=C1NC(=O)C(c2cnc3ccccn23)=C1c1cn2c3c(cc(F)cc13)CN(C(=O)N1CCCCC1)CC2"
assayed_system = "HEK-293T"
measurement_unit = "%"
assay_value = 6

[[record]]
structure_smiles_string = "C=C1/C(=C\\C=C2/CCC[C@]3(C)[C@@H]([C@H](C)/C=C/[C@H](C)C(C)C)CC[C@@H]23)C[C@@H](O)C[C@@H]1O"
assayed_system = "HEK-293T"
measurement_unit = "%"
assay_value = 7


Okay, now this compound:
Lookup: # value lookup — system HEK-293T, readout Population Fragmented Nuclei (%), item CCOc1cc2ncc(C#N)c(Nc3ccc(OCc4ccccn4)c(Cl)c3)c2cc1NC(=O)/C=C/CN(C)C
Found: 25

* * *

- Tested on: Fibroblast
- assay_notes: Multiplex assay against human fibroblast
- Format: toxicity, cell-based
- setup_conditions: 12 h, 10 µM, compound concentration 10 uM, replicate 2
A collection of compounds and their measured Population Pyknosed Nuclei (%)
A number alone suffices; assume %.

Worked examples follow.
[[record]]
structure_smiles_string = "CCN1CCN(c2ccc(Nc3cc(N(C)C(=O)Nc4c(Cl)c(OC)cc(OC)c4Cl)ncn3)cc2)CC1"
assay_value = 12

[[record]]
structure_smiles_string = "Cl.O=c1c2cccn2c2ccccc2n1CCCN1CCC(c2ccc(Cl)cc2)CC1"
assay_value = 21

[[record]]
structure_smiles_string = "Cc1ccc(C(=O)Nc2cccc(C(F)(F)F)c2)cc1Nc1nc(-c2cccnc2)nc2c1cnn2C"
assay_value = 39


Lookup: What does the record list as Population Pyknosed Nuclei (%) for CCOc1cc(C(=O)N2CCC(N3CCN(C)CC3)CC2)ccc1Nc1ncc2c(n1)N(C1CCCC1)c1ccccc1C(=O)N2C ?
Found: 27

Lookup: Next up: CCn1c(=O)c(-c2ccc(-c3cncs3)cc2Cl)cc2cnc(Nc3ccc(N4CCN(C)CC4)cc3)nc21
Found: 12

Lookup: Next up: COc1cccc2cc(-c3nc([C@H]4CC[C@H](C(=O)O)CC4)n4ncnc(N)c34)[nH]c12
Found: 8

Lookup: Next up: O=C(Nc1ccc(-n2nc(-c3cccnc3)cc2C(F)(F)F)cn1)c1ccc(-c2ccccc2)c(F)c1
Found: 0

Lookup: Next up: O=C1N/C(=N/c2ccccc2F)S/C1=C\c1ccc(C(=O)O)cc1
Found: 14

Lookup: Next up: C=CCn1c(=O)c2cnc(Nc3ccc(N4CCN(C)CC4)cc3)nc2n1-c1cccc(C(C)(C)O)n1
Found: 8

* * *

- Test system: HEK-293T
- assay_notes: Multiplex assay against HEK293T
- Assay type: toxicity, cell-based
- setup_conditions: human, 12 h, 10 µM, compound concentration 10 uM, replicate 2
assay_readout: Population Normal (%)
A number alone suffices; assume %.

Worked examples follow.
[[record]]
compound = "Cn1nc(C(=O)NCc2ccc(C(=O)O)cc2)cc1-c1ccc2[nH]ccc2c1 [BI 4395]"
assay_value = 98

[[record]]
compound = "CN(C)C(=O)C(CCN1CCC(O)(c2ccc(Cl)cc2)CC1)(c1ccccc1)c1ccccc1.Cl [LOPERAMIDE HYDROCHLORIDE]"
assay_value = 84

[[record]]
compound = "O=C(Nc1ccc(Cl)cc1)Nc1cccc(-c2cccc(N3CCCC3)n2)c1"
assay_value = 90

[[record]]
compound = "O=C(Cc1ccc(-c2ccc(OCCN3CCOCC3)cc2)cn1)NCc1ccccc1 [TIRBANIBULIN]"
assay_value = 95


Lookup: What does the record list as Population Normal (%) for NC(=O)c1cccc(-c2cc(Nc3ccc(OC(F)(F)F)cc3)ncn2)c1 ?
Found: 97

Lookup: Next up: CCOC(=O)c1c(C)[nH]c2ccc3c(c12)CN1CCc2cc(OC)ccc2C1O3 (configuration not stated)
Found: 87

Lookup: Next up: CCc1cccc(CC)c1NC(=O)c1nn(C)c2c1CCc1cnc(Nc3ccc(N4CCN(C)CC4)cc3OC)nc1-2
Found: 97
